# System under test: AKR1C2 (Homo sapiens, UniProt P52895)
# Construct: made in house
# Sequence (P52895 1-323): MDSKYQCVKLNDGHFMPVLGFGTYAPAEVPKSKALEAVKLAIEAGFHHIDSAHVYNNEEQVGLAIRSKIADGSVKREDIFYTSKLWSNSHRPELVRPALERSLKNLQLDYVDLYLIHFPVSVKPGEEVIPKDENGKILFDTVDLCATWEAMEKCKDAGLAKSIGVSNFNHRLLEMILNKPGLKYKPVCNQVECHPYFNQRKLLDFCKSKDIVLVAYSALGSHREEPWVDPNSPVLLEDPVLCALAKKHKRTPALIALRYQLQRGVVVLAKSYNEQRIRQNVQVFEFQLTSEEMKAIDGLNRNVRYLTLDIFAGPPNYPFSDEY
# Run description: Inhibition of recombinant AKR1C2, oxidation of 1-acenaphthenol, progress-curve analysis
# Assay type: biochemical
# Condition: AKR1C2; reversible binding to holoenzyme E-NAD; read-out: K2
Reported endpoint: Ki (µM)
Quick reminder: number only, in µM, skip the unit.

Some solved cases for reference:
{"Molecule": "C1N2CN3CN1CP(C2)C3.Cc1ccc(C(C)C)cc1.F[P-](F)(F)(F)(F)F.O=[N+]([O-])c1ccc([O][Ru+])c2ncccc12 [Compound 10]", "System under test": "AKR1C2 (Homo sapiens, UniProt P52895)", "Ki, µM": 42.5}
{"Molecule": "Cc1ccc(C(C)C)cc1.O=C(C=C([O][Ru][Cl])c1ccc(I)cc1)C(F)(F)F [Compound 1]", "System under test": "AKR1C2 (Homo sapiens, UniProt P52895)", "Ki, µM": 305}
{"Molecule": "C1N2CN3CN1CP(C2)C3.Cc1ccc(C(C)C)cc1.F[P-](F)(F)(F)(F)F.[O-]c1c(I)cc(Cl)c2cccnc12.[Ru+2] [Compound 8]", "System under test": "AKR1C2 (Homo sapiens, UniProt P52895)", "Ki, µM": 1.6}
{"Molecule": "C1N2CN3CN1CP(C2)C3.Cc1ccc(C(C)C)cc1.F[P-](F)(F)(F)(F)F.O=C(C=C([O][Ru+])c1ccc(I)cc1)C(F)(F)F [Compound 2]", "System under test": "AKR1C2 (Homo sapiens, UniProt P52895)", "Ki, µM": 80}
{"Molecule": "C1N2CN3CN1CP(C2)C3.Cc1ccc(C(C)C)cc1.F[P-](F)(F)(F)(F)F.O=C(C=C([O][Ru+])c1ccc2c(c1)OCO2)C(F)(F)F [Compound 6]", "System under test": "AKR1C2 (Homo sapiens, UniProt P52895)", "Ki, µM": 8.3}

Which Ki is reported with AKR1C2 (Homo sapiens, UniProt P52895) for this entry: CN(C)c1ccc(C(=CC(=O)C(F)(F)F)[O][Ru][Cl])cc1.Cc1ccc(C(C)C)cc1 [Compound 3] ?
157

Do the same for CN(C)c1ccc(C(=O)C=C([O][Ru+][PH]23CN4CN(CN(C4)C2)C3)C(F)(F)F)cc1.Cc1ccc(C(C)C)cc1.F[P-](F)(F)(F)(F)F [Compound 4] please
340

Then Cc1ccc(C(C)C)cc1.O=[N+]([O-])c1ccc([O][Ru][Cl])c2ncccc12 [Compound 9] ?
191

---

Overview of reported k+2 across a group of molecules:
# System under test: AKR1C3 (Homo sapiens, UniProt P42330)
# Construct: made in house
# Sequence (P42330 whole entry): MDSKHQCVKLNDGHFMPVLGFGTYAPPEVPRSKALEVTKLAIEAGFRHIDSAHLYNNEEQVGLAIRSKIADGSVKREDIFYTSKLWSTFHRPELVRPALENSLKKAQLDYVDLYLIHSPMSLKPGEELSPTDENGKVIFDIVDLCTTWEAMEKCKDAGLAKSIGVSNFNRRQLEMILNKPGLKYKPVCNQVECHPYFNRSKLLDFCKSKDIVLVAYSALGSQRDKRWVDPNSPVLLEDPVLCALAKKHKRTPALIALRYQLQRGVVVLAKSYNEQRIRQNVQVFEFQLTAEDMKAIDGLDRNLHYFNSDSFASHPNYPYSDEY
# Run description: Inhibition of recombinant AKR1C3, oxidation of 1-acenaphthenol, progress-curve analysis
# Type: biochemical
# Condition: AKR1C3; irreversible binding of second inhibitor molecule to E-NAD-I
# Experimental: To investigate the effect of ten selected ruthenium compounds, we measured their effect on the time course of oxidation of the artificial substrate 1-acenaphtenol by recombinant enzymes AKR1C1–3. […] The in vitro catalytic activity of AKR1C1–3 enzymes was determined spectrophotometrically by monitoring the increase in NADH absorbance at 340 nm (ε(λ340) = 6220 M^−1cm^−1) in the presence of the substrate 1-acenaphthenol. […]
Field: numeric (M⁻¹ s⁻¹). Do not append units.

Which value of k+2 has been reported for CN(C)c1ccc(C(=O)C=C([O][Ru+][PH]23CN4CN(CN(C4)C2)C3)C(F)(F)F)cc1.Cc1ccc(C(C)C)cc1.F[P-](F)(F)(F)(F)F in the records?
1.8

Same again, this time with C1N2CN3CN1CP(C2)C3.Cc1ccc(C(C)C)cc1.F[P-](F)(F)(F)(F)F.O=C(C=C([O][Ru+])c1ccc(I)cc1)C(F)(F)F
5.3

Then C1N2CN3CN1CP(C2)C3.Cc1ccc(C(C)C)cc1.F[P-](F)(F)(F)(F)F.O=C(C=C([O][Ru+])c1ccc2c(c1)OCO2)C(F)(F)F ?
90

Moving on to CN(C)c1ccc(C(=CC(=O)C(F)(F)F)[O][Ru][Cl])cc1.Cc1ccc(C(C)C)cc1
10.2

---

A collection of compounds and their measured Ki
# System under test: AKR1C2 (Homo sapiens, UniProt P52895)
# Construct: made in house
# Run description: Inhibition of recombinant AKR1C2, oxidation of 1-acenaphthenol, progress-curve analysis
# Assay type: biochemical
# Condition: AKR1C2; reversible binding to holoenzyme E-NADH; read-out: K3
Express your answer as a number followed by its unit.

{"Compound": "Cc1ccc(C(C)C)cc1.[Cl-].[O-]c1c(I)cc(Cl)c2cccnc12.[Ru+2] [Compound 7]", "System under test": "AKR1C2 (Homo sapiens, UniProt P52895)", "Ki": "65.4 nM"}

Name the recorded Ki for CN(C)c1ccc(C(=CC(=O)C(F)(F)F)[O][Ru][Cl])cc1.Cc1ccc(C(C)C)cc1 [Compound 3] .
1120 nM

Likewise for Cc1ccc(C(C)C)cc1.O=C(C=C([O][Ru][Cl])c1ccc2c(c1)OCO2)C(F)(F)F [Compound 5] ?
66.2 nM

Next up: Cc1ccc(C(C)C)cc1.O=C(C=C([O][Ru][Cl])c1ccc(I)cc1)C(F)(F)F [Compound 1]
52.7 nM

---

# System under test: AKR1C1 (Homo sapiens, UniProt Q04828)
# Construct: made in house
# Run description: Inhibition of recombinant AKR1C1, oxidation of 1-acenaphthenol, progress-curve analysis
# Type: biochemical
# Condition: reversible binding to holoenzyme E-NAD, read-out: K2
Recorded Ki by entry
The response must be a number in µM with no trailing unit.

Would you please look over these solved cases?
{"Smiles code": "CN(C)c1ccc(C(=O)C=C([O][Ru+][PH]23CN4CN(CN(C4)C2)C3)C(F)(F)F)cc1.Cc1ccc(C(C)C)cc1.F[P-](F)(F)(F)(F)F", "System under test": "AKR1C1 (Homo sapiens, UniProt Q04828)", "Ki [µM]": 86.9}
{"Smiles code": "C1N2CN3CN1CP(C2)C3.Cc1ccc(C(C)C)cc1.F[P-](F)(F)(F)(F)F.O=C(C=C([O][Ru+])c1ccc2c(c1)OCO2)C(F)(F)F", "System under test": "AKR1C1 (Homo sapiens, UniProt Q04828)", "Ki [µM]": 3.1}

Looking for the measured Ki of CN(C)c1ccc(C(=CC(=O)C(F)(F)F)[O][Ru][Cl])cc1.Cc1ccc(C(C)C)cc1 , can you help?
107

Next up: C1N2CN3CN1CP(C2)C3.Cc1ccc(C(C)C)cc1.F[P-](F)(F)(F)(F)F.O=C(C=C([O][Ru+])c1ccc(I)cc1)C(F)(F)F
2.8

---

Listing of entries alongside the reported pKi.
# System under test: AKR1C1 (Homo sapiens, UniProt Q04828)
# Construct: made in house
# Sequence (Q04828 1-323): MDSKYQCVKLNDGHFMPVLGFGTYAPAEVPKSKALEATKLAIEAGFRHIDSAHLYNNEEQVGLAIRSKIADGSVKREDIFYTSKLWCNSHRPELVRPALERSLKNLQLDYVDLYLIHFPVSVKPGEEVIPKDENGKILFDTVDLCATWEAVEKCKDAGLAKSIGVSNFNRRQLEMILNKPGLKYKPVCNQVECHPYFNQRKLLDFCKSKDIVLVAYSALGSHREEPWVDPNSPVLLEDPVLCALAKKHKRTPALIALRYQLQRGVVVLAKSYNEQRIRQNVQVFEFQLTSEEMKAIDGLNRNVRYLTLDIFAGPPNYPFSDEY
# Run description: Inhibition of recombinant AKR1C1, oxidation of 1-acenaphthenol, progress-curve analysis
# Type: biochemical
# Condition: reversible binding to holoenzyme E-NAD, read-out: K2
Please treat pKi as minus the base-10 logarithm of the molar concentration.

{"Molecule": "C1N2CN3CN1CP(C2)C3.Cc1ccc(C(C)C)cc1.F[P-](F)(F)(F)(F)F.O=[N+]([O-])c1ccc([O][Ru+])c2ncccc12 [Compound 10]", "Reported endpoint": "pKi", "Result value": 4.30}
{"Molecule": "C1N2CN3CN1CP(C2)C3.Cc1ccc(C(C)C)cc1.F[P-](F)(F)(F)(F)F.[O-]c1c(I)cc(Cl)c2cccnc12.[Ru+2] [Compound 8]", "Reported endpoint": "pKi", "Result value": 6.46}

Query pKi on AKR1C1 (Homo sapiens, UniProt Q04828) for Cc1ccc(C(C)C)cc1.O=[N+]([O-])c1ccc([O][Ru][Cl])c2ncccc12 [Compound 9]
3.64
